- TARGET OF ASSAY: Human chymase (Homo sapiens, UniProt P23946)
- Construct: purchased East Coast Biologics
- Sequence (P23946 22-247): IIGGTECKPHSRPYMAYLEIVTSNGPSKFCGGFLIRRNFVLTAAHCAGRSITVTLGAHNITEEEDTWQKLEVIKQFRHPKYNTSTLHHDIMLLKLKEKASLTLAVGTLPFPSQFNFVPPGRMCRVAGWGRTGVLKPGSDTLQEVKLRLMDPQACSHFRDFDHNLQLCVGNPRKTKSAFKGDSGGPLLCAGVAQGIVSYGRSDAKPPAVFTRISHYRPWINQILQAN
- ASSAY PROTOCOL: Measurement of human chymase enzyme inhibitory activity
- Assay type: biochemical
- CONDITIONS: concentration at which 90% of enzyme activity was inhibited
Could you mark each record Yes if its IC90 falls strictly under 0.1 µM, and No if it equals or exceeds it?

In [3]: df
Out[3]:
                                   compound  cat
0  Cc1cccc2[nH]cc(Cc3c(-c4ccc5ccccc5c4C(=O)O)nc4ccccn34)c12  Yes
1  Cc1cccc2scc(Cc3c(SCCCC(=O)O)nc4ccccn34)c12 [Comparative Compound 2, reference compound]   No
2  Cc1cccc2c1c(Cc1c(-c3ccccc3C(=O)O)nc3ccccn13)cn2C   No
3  Cc1cccc2[nH]cc(Cc3c(-c4ccc5ccccc5c4C(=O)O)nc4ccc(F)cn34)c12  Yes
4  Cc1cccc2c1c(Cn1c(Sc3ccccc3C(=O)O)nc3ccccc31)cn2C [Comparative Compound 4, reference compound]   No
5  Cc1cccc2c1c(Cc1c(-c3ccc4ccccc4c3C(=O)O)nc3ccccn13)cn2CCN1CCOCC1  Yes
6  O=C(O)c1ccccc1Sc1nc2ccccc2n1Cc1cccc2ccccc12 [Comparative Compound 3, reference compound]   No
7  Cc1ccc2nc(-c3ccccc3C(=O)O)c(Cc3cn(C)c4cccc(C)c34)n2c1   No
8  Cc1c(F)ccc2[nH]cc(Cc3c(-c4ccccc4C(=O)O)nc4ccccn34)c12   No
9  CCn1cc(Cc2c(-c3ccccc3C(=O)O)nc3ccccn23)c2c(C)cccc21   No
